Provenance of the data: the supplement of paper PMC9170038

- Tested on: MS2 coat protein
- Experiment Summary: apparent KD of MS2 coat protein, switch ON state; designed switch direction (-1 OFF switch, 1 ON switch): 1; higher = weaker reporter binding
- Experimental Conditions: FMN input: 0 or 200 uM; Eterna round: R93 (includes R88 designs)
Property Name: apparent KD of MS2 coat protein (nM)
One number for each entry, in nM.

Completed entries (count: 5):
| Chain Sequence | System Name | apparent KD of MS2 coat protein / nM |
| --- | --- | --- |
| GAAGACAUAGUUCAGGAUAUAGGAAUAGUCACAUGAGGAUCACCCAUGUGCAUUUAUAUGCGCGCUUAGAAGGGAGGUAGAUAAU [Mat - Same state - Malcolm Mod - D119] | MS2 coat protein | 24.5 |
| GAAGACAUAGUUCAGGAUAUAGGAAUAGUCACAUGAGGAUCACCCAUGUGCAUUUAUAUGCGCACUUAGAAGGGAGGUAGUUAUA [SameState2 Malc#22] | MS2 coat protein | 32.2 |
| GGUACAUCUAGUUAGGAUAUCAGGUGUAAGACAUGAGGAUCACCCAUGUCCUAAGAACAGGUAACUGAGAAGGAACAGGGAGUCC [JR_SS002_Sub416] | MS2 coat protein | 64.6 |
| AAAAAACAUGAGGAUCACCCAUGUAGAAACAUGGGAGGAUAUACAAAGACGAAAGUCAAAGUAGAAGGCCUAAAAA [Mat - Same State 1 - Mod - D157] | MS2 coat protein | 77.7 |
| AGAAAUAAACCGAAGGAUAUCUAAACCUAAACAUGAGGAUCACCCAUGUAAAAGAAAAUAAAAUGGGAGAAGGUCGGAAAUAAGA [Designing denovo 12] | MS2 coat protein | 17.5 |

Please supply apparent KD of MS2 coat protein for each of the following items, keeping them in order.
1. GGGAGGAAGAGAGAGGAUAUCCAAAGGAAAACAUGAGGAUCACCCAUGUAAAAGGUAGGAAAUUGGGAGAAGGCUCAAGAGAAAG [salish99-ss2-054]
2. GAAAAACAUGAGGAUCACCCAUGUGUAAAUAUGGGAGGAUAUACAAAGACGAAAGUCAAAGUAGAAGGCCUAAAAG [Mat - Same State 1 - Eli mod - D5]

Reply |
1. 29.8
2. 23.2

Each sequence below has a reported value. Please supply its apparent KD of MS2 coat protein.
1. UGAAAACAUGAGGAUCACCCAUGUAGAAAUAUGGGAGGAUAUACGAAGACGAAAGUCAAAGUAGAAGGCCUAAAUG [Mat - Same State 1 - Eli mod - D110]
2. AAUAUAUUAAGUGAGGAUAUCAUAGGAAAAACAUGAGGAUCACCCAUGUGGGAAACCUGGUCGGGUGAGAAGGUACUUAAUAUAU [Samwise Clockwise 31 - Jieux - Same State 2]
3. AUAAUAUUAAGCAAGGAUAUACUAAAGUAAACAUGAGGAUCACCCAUGUAAAAAAAAAAACUCAUGUAGAAGGUGCAUAAAUAAA [moonwalk 10]
4. AGAAUAAAAACAGAGGAUAUCCAAAAGAAAACAUGAGGAUCACCCAUGUAAAAGAAAAUAAAAUGGGAGAAGGCUGAAAAAAAGA [Mat - Same State 2 - Eli mod - D98]

Reply |
1: 27.6; 2: 69.2; 3: 8.92; 4: 25

###

- Test system: K4 kissing-loop RNA reporter;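 note: bound reporter read as fluorescence of individual clusters on recovered sequencing chips by microscopy, with normalized cluster intensities fitted with a binding model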
- Experiment Summary: apparent KD of K4 kissing-loop reporter; higher = weaker reporter binding
- Experimental Conditions: Eterna round: R107; input ligand: tryptophan 2.4 mM
Rule: apparent KD of K4 kissing-loop reporter under 200 nM gives -1, otherwise 1.

Some solved cases for reference:
| Chain Sequence | System Name | Class Name |
| --- | --- | --- |
| UGUGAGCUGUCGACAAAAGUCGACUAAAACUAGGAUAUGACGAAAGUCAGAAGGAGUCAAUAAUGGAGUGAUGUUCCUGCUCACU [FmnA 9 U31+A55] | K4 kissing-loop RNA reporter | 1 |
| CUAUAAGUGCCGAGUGAUGUUCGGCCAAUACGAGGACCGGUACGGCCGCCACUCGGUCAGUGGGUGCCCACCGGGCAUGGCUGAC [Cecezaa] | K4 kissing-loop RNA reporter | -1 |
| AGGAUCCGUCGACAAAAGUCGACAUAAGCCAAGGAUAUGACGAAAGUCAGAAGGUGGUCAUAAGACCAGUGAUGUUGGUGGAUCC [FmnA 13 #SwitchBubble #K4Late] | K4 kissing-loop RNA reporter | 1 |

Ask | Is reported apparent KD of K4 kissing-loop reporter greater than or equal to 200 nM here: UGAUACCAGACUGAUACCAGCUAGUGAUGUUAGCUGAAAUCAGGGUCAAAGACCCUGUCUAGCCCUUGGCAGCAGUCUGGUAUCU [TheoBX 9 #SwitchBubble #StaticStem]
Reply | -1

Ask | Input CCAGAAUGAUGAGGAUGAUAAAUUACUGAAGGAGCGCAUAUAGUUGCAGGUAGGUCGCGGUGAAUAAGUAUAGUGAUGUUAUACC [SSArgA.Ab]
Reply | 1

Ask | Similarly, UAAAAUAAAUAAUAGAGAUAAUUACUCGAAGGAGCGACGAAUUCGUCAGGUAGGUCGCGAGUGAUGUUCGCAAAUAUUAUCUCAU [AK3 Exc Arginine A] ?
Reply | 1

Ask | Try the sequence AGUACAAUGGCGGCCGCCACUCAAUGGCAGAUCAAAGAUCUGCAUCACUCAGUGAUGUUGAGUGAGAGGACCGGGCCUUUGUACA [Omei KL Tryp B SS B v7]
Reply | -1

Ask | Entry GUAGAUAGGCUACAUCUCUAGUCUAAACACUAGGAUAUCAGGAAACUGAGAAGGAGUGUCAUUGGAGUGAUGUUCCAAGAAUAAU [KL-SSFMN-A17] please
Reply | -1

Ask | Now this one: GUAUCGCUAGGAGGAUAUUCCAUUUUACAUAGAAAUGGCUAUGCGAAGUGAUGUUUCGAUUUACGGGAAGAAGGCCUAGUGAUAC [FMN B 22]
Reply | -1

Ask | // repeat for UGUCAUUGGUCUGAUACCAGUUAGACCGAUAGGUCAAAACUGGAGUGAUGUUCCUAAAAUAACCCUUGGCAGCAGACCGAUGACU [TheoBS 2 #SwitchBubble #StaticStem] and report
Reply | 1

###

- System: MS2 coat protein
- Experiment Summary: apparent KD of MS2 coat protein; designed switch direction (-1 OFF switch, 1 ON switch): -1; higher = weaker reporter binding
- Experimental Conditions: input ligand: none
Categorize each record by its apparent KD of MS2 coat protein using class 0 = under 30 nM, class 1 = from 30 nM up to 60 nM, class 2 = 60 nM and over

Take a look at these entries with their results.
| Chain Sequence | Class Name |
| --- | --- |
| AGAGUGCUGCGAGGAUAUACAUGAGGAUCACCCAUGUGGAUCUGUGAGGGAAAACCUCACAGGAUGUAGAAGGCGCAGUACUCA [Mat - Exclusion NG 2 - Mod of JL - D50] (Eterna round: R96, puzzle: Exclusion NG 2) | class 1 |
| AAUUAGCAAGCGAGAUCUCACAUGAGGAUCACCCAUGUGCUCGUCUUAUAAGGUACUGUGACGAUAGUCACGGUACC [Mat - Sensor, turn-off var - Eli Mod - D39] (Eterna round: R97, puzzle: Sensor, turn-off variant 1) | class 0 |
| AUUACGCAGUAGGAUAUGGGCGGUGAGCACCGUCCAGAAGGACUGACAUGAGGAUCACCCAUGUCCUCCCACAC [Eternabot (L2) Solution 42] (Eterna round: R97, puzzle: Exclusion 6) | class 1 |
| UAGCGACCAUACAUGAGGAUCACCCAUGUGAAUGCCCACCGCGAGGAUAUCGAGUCCACUCGGGCCGAGAAGGCGCGACCUCAA [Eternabot solution 43] (Eterna round: R96, puzzle: Exclusion NG 3) | class 1 |
| CUAGUAUAUCAGGAUAUGAUUUUAUAUAGUUGGUCAGAAGGGAUGACAUGAGGAUCACCCAUGUUAAGGAGUGA [JR_Ex6_Sub043] (Eterna round: R97, puzzle: Exclusion 6) | class 2 |

Ask | Band for UUUUGGCAUGUAGGAUAUGGGUCCGAUUAGGAUUUAGAAGGACAUGAGGAUCACCCAUGUGCAUUUAAUUGGUCUUUACCUUUU [EXclNG1-LROPPY12] (Eterna round: R96, puzzle: Exclusion NG 1) ?
Reply | class 2

Ask | Same question, CUACUACAUGAGGAUCACCCAUGUGAGGAUAUCAGUGGUGCUGCUAGGUAGUCCGGACUGAGAAGGCGCAUAGU [Mod-Malcom] (Eterna round: R97, puzzle: Exclusion 1) this time
Reply | class 1

Ask | Repeat for the following sequence: UGAGUGCUGCGAGGAUAUACAUGAGGAUCACCCAUGUUUUCCUGUGAGGCAUAGCCUCACAGGAUGUAGAAGGCGCAGUACUCU [Mat - Exclusion NG 2 - Mod of JL - D28] (Eterna round: R96, puzzle: Exclusion NG 2)
Reply | class 0
